system: SK-MEL-5; test: Cytotoxicity against human SK-MEL-5 cells after 2 days by sulforhodamine B assay; assay type: functional; settings: SK-MEL-5, 48 h
Quick list: TGI per entry.
All answers are understood in µM, so give the number only.

Reference set (3 entries):
{"columns": ["SMILES REPR", "MEASURE NAME", "MEASUREMENT"],
 "data": [
  ["CC/C(=C(/c1ccc(OCCN(C)C)cc1)c1ccc(OC(=O)CCC(=O)C2=C(C)/C(=C/c3[nH]c(-c4ccc[nH]4)cc3OC)N=C2C)cc1)c1ccccc1", "TGI", 3.22],
  ["CC/C(=C(/c1ccc(OCCN(C)C)cc1)c1ccc(OC(=O)CCCCCCCCC(=O)C2=C(C)/C(=C/c3[nH]c(-c4ccc[nH]4)cc3OC)N=C2C)cc1)c1ccccc1", "TGI", 3.24],
  ["COc1cc(-c2ccc[nH]2)[nH]c1/C=C1\\N=C(C)C(C(=O)CCC(=O)Oc2ccc3c(c2)CC[C@@H]2[C@@H]3CC[C@]3(C)C(=O)CC[C@@H]23)=C1C", "TGI", 19.6]
]}

We now examine a further compound.
Enquiry: Which value of TGI has been reported for "CCC(=C(c1ccc(OCCN(C)C)cc1)c1ccc(OC(=O)CCCCC(=O)C2=C(C)/C(=C/c3[nH]c(-c4ccc[nH]4)cc3OC)N=C2C)cc1)c1ccccc1" in the records?
Return: 3.09
